These data points were gathered from paper PMC11415492.

- Study target: rKOR (Rattus norvegicus)
- Construct: signal peptide (N); expressed in transfected cells; host or cells: HEK-293T, transient (PEI)
- Sequence (P34975 whole entry): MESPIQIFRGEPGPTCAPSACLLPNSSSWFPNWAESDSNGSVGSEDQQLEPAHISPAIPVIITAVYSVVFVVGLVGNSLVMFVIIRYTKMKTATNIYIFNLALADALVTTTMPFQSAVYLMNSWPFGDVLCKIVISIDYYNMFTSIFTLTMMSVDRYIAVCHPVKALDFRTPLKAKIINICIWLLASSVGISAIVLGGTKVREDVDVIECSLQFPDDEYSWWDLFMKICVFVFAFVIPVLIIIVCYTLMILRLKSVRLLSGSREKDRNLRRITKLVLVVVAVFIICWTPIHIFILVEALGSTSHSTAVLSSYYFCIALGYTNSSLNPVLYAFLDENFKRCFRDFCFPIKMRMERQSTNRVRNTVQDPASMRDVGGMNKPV
- Assay overview: G protein activation BRET assay (GαoB)
- Type: cell-based
- Run conditions: HEK-293T
Counter-ions that a name gives are not always drawn.

Compound: CCC1CC2CC3c4[nH]c5ccc(O)cc5c4CCN(C2)C13 (stereo not shown) [Noribogaine, Noribogaine hydrochloride]
Study target: rKOR (Rattus norvegicus)
EC50 [µM]: 6.1

----------
- Assay overview: Pharmacokinetic study in mice (plasma and brain), with estimated free drug concentrations
- Assay type: in vivo, mouse
- Run conditions: mouse, sc; plasma; male C57BL/6 mice, s.c. 10 mg/kg; read-out: VZ/F
Where a name gives a salt, the structure may show the parent alone.

Compound: CCC1CC2CC3c4[nH]c5ccc(O)cc5c4CCN(C2)C13 (stereo not shown) [Noribogaine, Noribogaine hydrochloride]
Value units: L/kg
Vd/F: 7.62

----------
- Assay overview: Pharmacokinetic study in mice (plasma and brain), with estimated free drug concentrations
- Assay type: in vivo, mouse
- Run conditions: male, C57BL/6, mouse, plasma, sc, 10 mg/kg, 2 h; mice, 10 mg/kg s.c.; individual animals; read-out: Free Plasma Concentration
Structures can show the parent of a compound that is named as a salt.
Value type: concentration at 2 h (nM)

Compound: CCC1CC2CC3c4[nH]c5ccc(O)cc5c4CCN(C2)C13 (stereo not shown) [Noribogaine, Noribogaine hydrochloride]
Readout value: 1280

----------
- Assay overview: Pharmacokinetic study in mice (plasma and brain), with estimated free drug concentrations
- Format: in vivo, mouse
- Run conditions: male, C57BL/6, mouse, plasma, sc, 10 mg/kg, 1 h; mice, 10 mg/kg s.c.; individual animals; read-out: Plasma Concentration (total)
Where a name gives a salt, the structure may show the parent alone.

Compound: CCC1CC2CC3c4[nH]c5ccc(O)cc5c4CCN(C2)C13 (stereo not shown) [Noribogaine, Noribogaine hydrochloride]
concentration at 1 h / µM: 4.03

----------
- Assay overview: Pharmacokinetic study in mice (plasma and brain), with estimated free drug concentrations
- Format: in vivo, mouse
- Run conditions: male, C57BL/6, mouse, brain, sc, 10 mg/kg; male C57BL/6 mice, s.c. 10 mg/kg
Structures can show the parent of a compound that is named as a salt.

Molecule: CCC1CC2CC3c4[nH]c5ccc(O)cc5c4CCN(C2)C13 (stereo not shown) [Noribogaine, Noribogaine hydrochloride]
Cmax, ng/g: 5090

----------
- Assay overview: Pharmacokinetic study in mice (plasma and brain), with estimated free drug concentrations
- Type: in vivo, mouse
- Run conditions: mouse, sc; brain; male C57BL/6 mice, s.c. 10 mg/kg; read-out: T1/2z (converted)
Counter-ions that a name gives are not always drawn.
Value type: half-life

Compound: CCC1CC2CC3c4[nH]c5ccc(O)cc5c4CCN(C2)C13 (stereo not shown) [Noribogaine, Noribogaine hydrochloride]
Value type: half-life
Readout value: 1.71 h
